Where do these numbers come from? They come from paper PMC6407917.

Molecular target: PRKD3 (Homo sapiens, UniProt O94806)
Sequence (O94806 whole entry): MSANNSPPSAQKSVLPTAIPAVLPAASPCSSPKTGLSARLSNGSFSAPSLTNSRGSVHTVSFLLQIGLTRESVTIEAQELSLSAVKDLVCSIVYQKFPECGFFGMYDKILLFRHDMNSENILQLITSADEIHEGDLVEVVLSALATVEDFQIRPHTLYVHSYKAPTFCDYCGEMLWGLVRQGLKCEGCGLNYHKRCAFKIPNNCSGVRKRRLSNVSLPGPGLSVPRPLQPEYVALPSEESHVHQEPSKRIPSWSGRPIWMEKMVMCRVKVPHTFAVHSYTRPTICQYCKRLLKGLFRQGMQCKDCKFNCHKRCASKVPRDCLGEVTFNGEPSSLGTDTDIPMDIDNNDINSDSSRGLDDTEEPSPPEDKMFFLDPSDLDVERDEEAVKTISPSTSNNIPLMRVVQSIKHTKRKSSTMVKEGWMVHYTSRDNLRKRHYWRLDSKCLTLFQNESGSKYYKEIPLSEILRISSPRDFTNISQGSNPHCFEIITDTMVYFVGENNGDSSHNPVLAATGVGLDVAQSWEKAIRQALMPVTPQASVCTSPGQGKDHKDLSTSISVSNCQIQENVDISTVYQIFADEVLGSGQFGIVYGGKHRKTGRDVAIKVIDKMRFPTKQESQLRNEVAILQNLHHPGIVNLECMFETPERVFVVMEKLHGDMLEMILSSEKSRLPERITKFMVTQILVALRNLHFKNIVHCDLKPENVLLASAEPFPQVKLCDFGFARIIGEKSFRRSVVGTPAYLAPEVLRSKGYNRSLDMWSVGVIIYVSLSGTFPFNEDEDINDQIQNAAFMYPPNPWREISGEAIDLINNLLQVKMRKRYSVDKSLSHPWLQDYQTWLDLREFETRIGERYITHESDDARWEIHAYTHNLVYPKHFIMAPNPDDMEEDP
Experiment: biochemical
Design: species or system HEK293/K-562/placenta mixed human extract; Kinobeads chemoproteomic competition binding, quantified by TMT LC-MS/MS, dose response up to 20 uM
pIC50: −log10 of the molar value.
experimental.endpoint: pIC50

In: // fetch PRKD3 (Homo sapiens, UniProt O94806) pIC50 for COc1nc(N[C@H]2CC[C@H](NS(=O)(=O)CC(C)C)CC2)nc2[nH]nc(N3CCOC[C@H]3C)c12
Out: ≤ 4.70

* * *

Molecular target: CHEK1 (Homo sapiens)
Sequence (O14757 1-476): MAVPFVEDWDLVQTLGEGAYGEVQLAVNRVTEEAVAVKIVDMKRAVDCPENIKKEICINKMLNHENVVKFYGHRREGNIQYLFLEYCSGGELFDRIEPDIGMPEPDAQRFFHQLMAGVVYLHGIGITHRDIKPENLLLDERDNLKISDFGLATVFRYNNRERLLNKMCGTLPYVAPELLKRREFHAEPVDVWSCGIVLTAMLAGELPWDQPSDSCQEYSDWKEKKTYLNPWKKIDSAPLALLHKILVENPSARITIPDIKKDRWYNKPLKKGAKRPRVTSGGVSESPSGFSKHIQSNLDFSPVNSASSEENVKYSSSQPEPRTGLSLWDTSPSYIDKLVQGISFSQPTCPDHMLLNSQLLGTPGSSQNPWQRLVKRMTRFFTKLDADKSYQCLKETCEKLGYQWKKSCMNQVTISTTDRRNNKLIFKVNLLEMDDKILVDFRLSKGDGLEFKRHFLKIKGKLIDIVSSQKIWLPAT
Assay: biochemical
Design: species or system HEK293/K-562/placenta mixed human extract; Kinobeads chemoproteomic competition binding, quantified by TMT LC-MS/MS, dose response up to 20 uM
pIC50: −log10 of the molar value.
experimental.endpoint: pIC50

In: Consider the molecule COc1nc(N[C@H]2CC[C@H](NS(=O)(=O)CC(C)C)CC2)nc2[nH]nc(N3CCOC[C@H]3C)c12 [compound 39] and give its measured pIC50.
Out: ≤ 4.70

* * *

Target: RPS6KA2 (Homo sapiens)
Assay: biochemical
Design: species or system HEK293/K-562/placenta mixed human extract; Kinobeads chemoproteomic competition binding, quantified by TMT LC-MS/MS, dose response up to 20 uM
experimental.endpoint: IC50

In: Endpoint output: IC50 of COc1ccccc1-c1n[nH]c2nc(N[C@H]3CC[C@H](NS(=O)(=O)CCC(F)(F)F)CC3)nc(OC)c12 [compound 31] . Value?
Out: ≥ 20 µM

* * *

Target: CDC42BPG (Homo sapiens)
Assay: biochemical
Parameters: species or system HEK293/K-562/placenta mixed human extract; Kinobeads chemoproteomic competition binding, quantified by TMT LC-MS/MS, dose response up to 20 uM
pIC50: −log10 of the molar value.
experimental.endpoint: pIC50

In: What does the record list as pIC50 for COc1ccccc1-c1n[nH]c2nc(N[C@H]3CC[C@H](NS(=O)(=O)CCC(F)(F)F)CC3)nc(OC)c12 [compound 31] ?
Out: ≤ 4.70

* * *

Biological target: MERTK (Homo sapiens, UniProt Q12866)
Experiment: biochemical
Set-up: species or system HEK293/K-562/placenta mixed human extract; Kinobeads chemoproteomic competition binding, quantified by TMT LC-MS/MS, dose response up to 20 uM
pIC50: −log10 of the molar value.
experimental.endpoint: pIC50

In: What value of pIC50 has been recorded for this entry: COc1ccccc1-c1n[nH]c2nc(N[C@H]3CC[C@H](NS(=O)(=O)CCC(F)(F)F)CC3)nc(OC)c12
Out: ≤ 4.70

* * *

Target: CAMK2G (Homo sapiens, UniProt Q13555)
Sequence (Q13555 whole entry): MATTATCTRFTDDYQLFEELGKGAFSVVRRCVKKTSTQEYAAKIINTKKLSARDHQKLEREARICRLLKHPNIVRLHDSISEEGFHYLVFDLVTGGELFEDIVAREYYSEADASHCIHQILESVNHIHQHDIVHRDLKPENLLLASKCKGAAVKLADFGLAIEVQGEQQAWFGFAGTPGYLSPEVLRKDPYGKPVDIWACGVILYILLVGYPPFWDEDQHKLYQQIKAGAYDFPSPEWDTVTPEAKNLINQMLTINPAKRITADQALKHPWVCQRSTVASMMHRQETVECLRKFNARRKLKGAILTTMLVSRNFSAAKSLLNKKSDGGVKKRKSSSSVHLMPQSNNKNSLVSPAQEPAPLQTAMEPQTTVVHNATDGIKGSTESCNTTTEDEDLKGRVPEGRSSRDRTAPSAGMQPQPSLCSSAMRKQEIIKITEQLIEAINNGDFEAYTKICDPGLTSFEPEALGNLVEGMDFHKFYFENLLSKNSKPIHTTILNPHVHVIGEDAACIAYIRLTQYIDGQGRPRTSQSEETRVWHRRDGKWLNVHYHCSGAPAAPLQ
Assay: biochemical
Design: species or system HEK293/K-562/placenta mixed human extract; Kinobeads chemoproteomic competition binding, quantified by TMT LC-MS/MS, dose response up to 20 uM
experimental.endpoint: IC50

In: Using the record for COc1nc(N[C@H]2CC[C@H](NS(=O)(=O)CC(C)C)CC2)nc2[nH]nc(N3CCOC[C@H]3C)c12 , report its IC50.
Out: ≥ 20 µM

* * *

Target: KIT (Homo sapiens, UniProt P10721)
Assay: biochemical
Parameters: species or system HEK293/K-562/placenta mixed human extract; Kinobeads chemoproteomic competition binding, quantified by TMT LC-MS/MS, dose response up to 20 uM
experimental.endpoint: IC50

In: Name the reported IC50 value associated with the compound COc1ccccc1-c1n[nH]c2nc(N[C@H]3CC[C@H](NS(=O)(=O)CCC(F)(F)F)CC3)nc(OC)c12
Out: ≥ 20 µM

* * *

Biological target: AAK1 (Homo sapiens, UniProt Q2M2I8)
Assay: biochemical
Design: species or system HEK293/K-562/placenta mixed human extract; Kinobeads chemoproteomic competition binding, quantified by TMT LC-MS/MS, dose response up to 20 uM
pIC50: −log10 of the molar value.
experimental.endpoint: pIC50

In: Given the entry COc1ccccc1-c1n[nH]c2nc(N[C@H]3CC[C@H](NS(=O)(=O)CCC(F)(F)F)CC3)nc(OC)c12 , report its measured pIC50.
Out: ≤ 4.70

* * *

Biological target: IKBKB (Homo sapiens, UniProt O14920)
Sequence (O14920 whole entry): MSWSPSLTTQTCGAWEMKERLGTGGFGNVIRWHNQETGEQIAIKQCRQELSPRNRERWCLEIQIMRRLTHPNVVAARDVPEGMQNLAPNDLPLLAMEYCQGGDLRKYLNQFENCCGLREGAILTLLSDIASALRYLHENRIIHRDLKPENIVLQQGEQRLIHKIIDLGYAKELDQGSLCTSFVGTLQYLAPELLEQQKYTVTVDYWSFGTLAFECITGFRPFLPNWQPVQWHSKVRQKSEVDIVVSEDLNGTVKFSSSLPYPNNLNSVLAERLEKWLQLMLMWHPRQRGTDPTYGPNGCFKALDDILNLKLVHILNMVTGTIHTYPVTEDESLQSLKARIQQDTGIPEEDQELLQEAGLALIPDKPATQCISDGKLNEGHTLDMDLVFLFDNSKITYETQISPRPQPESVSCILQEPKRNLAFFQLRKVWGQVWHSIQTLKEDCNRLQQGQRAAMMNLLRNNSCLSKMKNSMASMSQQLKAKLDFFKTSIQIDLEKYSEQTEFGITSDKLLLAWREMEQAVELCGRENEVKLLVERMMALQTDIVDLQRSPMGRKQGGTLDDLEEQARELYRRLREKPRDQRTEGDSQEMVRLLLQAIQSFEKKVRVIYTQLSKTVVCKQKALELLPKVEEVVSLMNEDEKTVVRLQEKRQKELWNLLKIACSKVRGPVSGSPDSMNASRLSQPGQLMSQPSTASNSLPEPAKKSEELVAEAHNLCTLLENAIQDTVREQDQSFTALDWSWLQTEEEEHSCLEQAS
Experiment: biochemical
Design: species or system HEK293/K-562/placenta mixed human extract; Kinobeads chemoproteomic competition binding, quantified by TMT LC-MS/MS, dose response up to 20 uM
experimental.endpoint: IC50

In: Can you look up the measured IC50 of COc1nc(N[C@H]2CC[C@H](NS(=O)(=O)CC(C)C)CC2)nc2[nH]nc(N3CCOC[C@H]3C)c12 for me?
Out: ≥ 20 µM

* * *

Molecular target: EPHB6 (Homo sapiens, UniProt O15197)
Experiment: biochemical
Design: species or system HEK293/K-562/placenta mixed human extract; Kinobeads chemoproteomic competition binding, quantified by TMT LC-MS/MS, dose response up to 20 uM
experimental.endpoint: IC50

In: Quick check: IC50 on EPHB6 (Homo sapiens, UniProt O15197), item COc1ccccc1-c1n[nH]c2nc(N[C@H]3CC[C@H](NS(=O)(=O)CCC(F)(F)F)CC3)nc(OC)c12 ?
Out: ≥ 20 µM

* * *

Biological target: UniProtKB Q8IW41
Sequence (Q8IW41 1-473): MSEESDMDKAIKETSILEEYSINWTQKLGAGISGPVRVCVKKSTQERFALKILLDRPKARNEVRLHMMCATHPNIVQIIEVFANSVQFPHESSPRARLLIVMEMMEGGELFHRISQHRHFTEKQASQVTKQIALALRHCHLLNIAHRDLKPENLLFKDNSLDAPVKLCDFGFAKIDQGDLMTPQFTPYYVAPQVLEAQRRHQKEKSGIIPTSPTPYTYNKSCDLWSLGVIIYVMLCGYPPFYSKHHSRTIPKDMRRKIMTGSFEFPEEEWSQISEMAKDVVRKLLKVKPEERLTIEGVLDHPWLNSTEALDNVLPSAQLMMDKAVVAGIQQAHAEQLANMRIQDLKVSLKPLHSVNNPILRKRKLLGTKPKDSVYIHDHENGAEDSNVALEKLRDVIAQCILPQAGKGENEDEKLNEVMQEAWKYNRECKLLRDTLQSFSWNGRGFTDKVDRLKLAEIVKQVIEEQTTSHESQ
Experiment: biochemical
Design: species or system HEK293/K-562/placenta mixed human extract; Kinobeads chemoproteomic competition binding, quantified by TMT LC-MS/MS, dose response up to 20 uM
experimental.endpoint: IC50 (µM)
Just the number please, in µM, no unit attached.

In: Given the entry COc1ccccc1-c1n[nH]c2nc(N[C@H]3CC[C@H](NS(=O)(=O)CCC(F)(F)F)CC3)nc(OC)c12 , report its measured IC50.
Out: 3

* * *

Biological target: CDC42BPG (Homo sapiens, UniProt Q6DT37)
Sequence (Q6DT37 whole entry): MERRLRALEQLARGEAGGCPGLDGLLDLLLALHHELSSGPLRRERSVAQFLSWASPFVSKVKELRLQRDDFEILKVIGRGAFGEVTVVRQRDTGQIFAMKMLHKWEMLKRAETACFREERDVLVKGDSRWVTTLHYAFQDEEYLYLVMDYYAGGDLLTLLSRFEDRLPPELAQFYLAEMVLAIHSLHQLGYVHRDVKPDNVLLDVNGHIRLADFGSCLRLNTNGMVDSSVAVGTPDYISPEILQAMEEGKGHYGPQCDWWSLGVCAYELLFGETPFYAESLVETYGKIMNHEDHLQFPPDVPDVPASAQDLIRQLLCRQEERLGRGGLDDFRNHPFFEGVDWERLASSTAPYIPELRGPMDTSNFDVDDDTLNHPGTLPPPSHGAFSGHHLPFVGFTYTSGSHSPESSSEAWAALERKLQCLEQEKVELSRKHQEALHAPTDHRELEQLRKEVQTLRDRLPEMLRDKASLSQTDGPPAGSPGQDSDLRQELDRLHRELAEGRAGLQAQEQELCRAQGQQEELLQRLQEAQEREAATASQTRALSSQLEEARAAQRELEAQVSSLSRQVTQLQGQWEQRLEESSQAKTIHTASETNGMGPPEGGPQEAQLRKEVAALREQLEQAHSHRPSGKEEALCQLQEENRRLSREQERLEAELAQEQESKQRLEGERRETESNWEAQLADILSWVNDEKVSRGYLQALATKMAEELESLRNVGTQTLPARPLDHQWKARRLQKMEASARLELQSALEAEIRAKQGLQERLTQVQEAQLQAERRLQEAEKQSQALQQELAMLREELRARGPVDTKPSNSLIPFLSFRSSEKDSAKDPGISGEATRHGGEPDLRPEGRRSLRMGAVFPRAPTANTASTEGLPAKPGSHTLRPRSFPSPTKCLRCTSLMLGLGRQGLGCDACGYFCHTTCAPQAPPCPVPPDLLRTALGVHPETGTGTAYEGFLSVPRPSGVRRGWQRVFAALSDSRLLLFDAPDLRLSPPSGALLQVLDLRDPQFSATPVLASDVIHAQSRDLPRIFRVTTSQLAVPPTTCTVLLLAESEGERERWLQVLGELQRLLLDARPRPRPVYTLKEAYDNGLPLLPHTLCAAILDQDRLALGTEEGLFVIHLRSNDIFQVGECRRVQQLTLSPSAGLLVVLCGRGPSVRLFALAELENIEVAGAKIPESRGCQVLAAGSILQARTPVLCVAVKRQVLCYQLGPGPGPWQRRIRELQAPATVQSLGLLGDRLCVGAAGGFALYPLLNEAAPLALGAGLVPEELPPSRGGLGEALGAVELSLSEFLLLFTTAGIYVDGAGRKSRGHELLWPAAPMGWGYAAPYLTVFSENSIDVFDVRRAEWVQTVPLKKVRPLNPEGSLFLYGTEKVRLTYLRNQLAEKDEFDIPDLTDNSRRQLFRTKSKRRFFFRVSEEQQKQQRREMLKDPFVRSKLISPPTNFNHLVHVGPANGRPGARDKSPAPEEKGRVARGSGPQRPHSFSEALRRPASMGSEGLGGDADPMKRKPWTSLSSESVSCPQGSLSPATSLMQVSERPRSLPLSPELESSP
Assay: biochemical
Design: species or system HEK293/K-562/placenta mixed human extract; Kinobeads chemoproteomic competition binding, quantified by TMT LC-MS/MS, dose response up to 20 uM
pIC50: −log10 of the molar value.
experimental.endpoint: pIC50

In: GET /values?readout=pIC50&item= COc1nc(N[C@H]2CC[C@H](NS(=O)(=O)CC(C)C)CC2)nc2[nH]nc(N3CCOC[C@H]3C)c12
Out: ≤ 4.70

* * *

Molecular target: UniProt P27448
Sequence (P27448 whole entry): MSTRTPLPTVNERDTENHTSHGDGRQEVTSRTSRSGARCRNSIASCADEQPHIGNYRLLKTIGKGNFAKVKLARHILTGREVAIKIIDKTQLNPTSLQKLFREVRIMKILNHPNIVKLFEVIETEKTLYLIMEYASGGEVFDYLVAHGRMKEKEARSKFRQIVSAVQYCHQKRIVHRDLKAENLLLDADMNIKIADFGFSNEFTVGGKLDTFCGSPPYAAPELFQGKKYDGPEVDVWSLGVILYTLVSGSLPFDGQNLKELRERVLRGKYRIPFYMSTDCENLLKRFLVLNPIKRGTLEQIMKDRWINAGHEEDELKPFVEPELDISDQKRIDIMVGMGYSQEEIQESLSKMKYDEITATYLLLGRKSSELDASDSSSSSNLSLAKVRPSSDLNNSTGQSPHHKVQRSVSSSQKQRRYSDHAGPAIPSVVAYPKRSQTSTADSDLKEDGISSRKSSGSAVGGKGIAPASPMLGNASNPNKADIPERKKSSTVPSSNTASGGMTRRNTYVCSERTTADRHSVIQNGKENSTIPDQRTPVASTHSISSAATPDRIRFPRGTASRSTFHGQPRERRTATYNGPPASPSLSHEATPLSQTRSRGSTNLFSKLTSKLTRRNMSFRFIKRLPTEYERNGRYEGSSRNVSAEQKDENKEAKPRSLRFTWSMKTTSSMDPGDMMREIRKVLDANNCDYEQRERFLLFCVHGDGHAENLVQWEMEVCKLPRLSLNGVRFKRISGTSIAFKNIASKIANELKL
Assay: biochemical
Parameters: species or system HEK293/K-562/placenta mixed human extract; Kinobeads chemoproteomic competition binding, quantified by TMT LC-MS/MS, dose response up to 20 uM
pIC50: −log10 of the molar value.
experimental.endpoint: pIC50

In: What reported pIC50 corresponds to COc1nc(N[C@H]2CC[C@H](NS(=O)(=O)CC(C)C)CC2)nc2[nH]nc(N3CCOC[C@H]3C)c12 on UniProt P27448?
Out: ≤ 4.70
